Experiment: folding stability dG unfold (combined trypsin and chymotrypsin); higher = more stable
Decision: folding stability dG unfold compared against 2 kcal/mol; not below it gives fulfilled, below it gives not fulfilled.

Identify whether the reported folding stability dG unfold of the following sequence is 2 kcal/mol or greater: SAGGMIRVEDTSTSVSIDIEITPLPNGQYKATITTTTTSAKLLPNGTPVTTTTPTTSTVTITPDVPLLSAGG [r13_561_JUSTAS] not fulfilled

Could you verify whether the entry SAGGKYVIIMFPLPPNLEVEIEYPGVPVHRTPNGSLMFQIPPNEPIRIKIKNPNGEEEELPINIFPLSAGGS [r8_72_TrROS] shows folding stability dG unfold of no less than 2 kcal/mol? fulfilled

Could you verify whether the entry SAGGWRMEIEFPGINPEELRKAIAEAPGNKDVDVDVERIPKDGSVKIEMHGNNPADRKRIQKAVKKAFSAGG [r13_580_TrROS] shows folding stability dG unfold of no less than 2 kcal/mol? not fulfilled

Determine whether this sequence has folding stability dG unfold no lower than 2 kcal/mol: SAGGSAGGSANFRILVDPPTNKIWIFDPPGYVYKIKVDPKEGKMKHEPVPIPPDDLPPNAFKSAGGSAGGSA [r18_59_TrROS] not fulfilled

Tell me whether folding stability dG unfold is at least 2 kcal/mol here: SAGGSAGGSAGGVKPGDFVLIKLTLTEKYYDPETGELIEEKEVELTILIPKGTSLEELKLSAGGSAGGSAGG [r7_591_TrROS_Hall] fulfilled

Hi, just wondering whether SAGGSAGGSAGMKPDDTVTYTITVPHPESGEPLAEIELTYPVGTPIEKVKEEAKILAEKISAGGSAGGSAGG [r11_516_TrMRF] shows folding stability dG unfold of 2 kcal/mol or higher. not fulfilled

Decide: folding stability dG unfold of SAGGGNIRPVRIERLPDGSLLIVLVADSPDDAFSDESTLDALPGEEELLEARYDPSTGRVLLVRRFRPSAGG [r13_413_TrMRF] >= 2 kcal/mol? not fulfilled

---

Assay: folding stability dG unfold (combined trypsin and chymotrypsin); higher = more stable
So I've got a bunch of sequences here, and I need their folding stability dG unfold values.
# output: bare number, implied unit kcal/mol

sequence SAGEVELEVPIEALKKLPNLEGATVRVTVKLNENGELEITIEVEKAPEPPLTEEEKKKLLEEEEKKKKSAGG [r19_313_TrROS_Hall] , folding stability dG unfold observed: 1.06

Consider SAGGSAGGSMTITKRSDGTIEVEIEISPEHPDVSPEEVKERVKKELEKKGIKTPVKITVKPVPESAGGSAGG [r6_480_JUSTAS] . Its measured folding stability dG unfold is 1.92

// sample SAGGGTFYLVVKVEKVAPNPETGELVEERLELVIPGKAPNAVSEEDLKAFVDALLPLGYKVEVELREGSAGG [r13_926_TrMRF] , its folding stability dG unfold was 2.07

Measured folding stability dG unfold of SAGEKIKEALKKAGVEKVEIVEIKRLKNGKVLIVIRLHPDMSEEQRRRLLKALADALREEFPDVKIVELSAG [r5_101_TrROS_Hall] : 4.5

The measured folding stability dG unfold associated with SAGGSITVSEDESNLTFTIPVPPTEPLTPEEVRAAAEALLAELGPDIRVLSIERLPDGGYRVEAEVRSAGGS [r8_103_JUSTAS] reads 1.87

Consider SAGGPDPYNLKVEEETYPNPDGGEMKIPKIEIPDGRLKIDMEMRNPGNGKEHEHEITIPVKPGQEIFISAGG [r13_190_TrROS] . Its measured folding stability dG unfold is 0.0459

Record summary for SAGGSAGGMEEIVLPIPEEVAKELIASGTVTKTQTEGNRTILTKTPPSGGSTKITVVLPPSYPSSAGGSAGG [r6_654_JUSTAS] : reported folding stability dG unfold = 1.35
